- Tested on: T1, thermolysin-cleaved EBOV GP on Jurkat-GP cells (cleaved GP) (Zaire ebolavirus, Makona (GP1 core …, strain))
- T1 chain 1: not shown
- T1 chain 2: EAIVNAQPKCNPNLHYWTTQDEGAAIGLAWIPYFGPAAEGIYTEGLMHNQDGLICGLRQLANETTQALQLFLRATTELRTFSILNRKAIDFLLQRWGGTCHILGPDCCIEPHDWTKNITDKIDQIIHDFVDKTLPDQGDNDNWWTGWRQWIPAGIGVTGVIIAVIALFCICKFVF

[
  {
    "Binder": "5.6.c3057 (antibody, V domains shown) VH: QVQLVESGGGVVQSGRSLRLSCAASGFTLSSYGMHWVRQAPGKGLEWVATVSFDGNNEYYADSVKGRFTISRDKSKNTLYLQMNSLRPEDTAMYYCAKEPLPARGDFWSGHYSPPSYYYYGMDVWGQGTTVTVSS VL: QTVVTQEPSFSVSPGGTVTLTCGLRSGSVSTNYYPSWYQQTPGQPPRTLIYNTNTRSFGVPDRFSGSILGNRAALTITGAQADDESDYYCLLYMDSGIWVFGGGTKLTVL",
    "binding result": "binds"
  },
  {
    "Binder": "5.6.c2644 (antibody, V domains shown) VH: QVQLVQSGAEVKKPGASVKVSCKASGYTFSNYGITWVRQAPGQGLEWMGWISAYNGNTKYAQKVQGRVTLSTDTSTSTAYMELRSLRSDDTAIYYCARDPGMITPGGVIEHWGQGTLVTVSS VL: DIQMTQSPSSLSASVGDRVTVTCRASQGISNYLAWYQQKPGKVPKLLIYAASTLHSGVPSRFSGSGSGTDFTLTISSLQPEDVATYVCHNYNNAPRTFGQGTKVEIK",
    "binding result": "binds"
  }
]
